System: CCRIS mutagenicity, Ames/micronucleus/aberration tests
Assay: CCRIS mutagenicity studies
Conditions: Test System: E.COLI; Strain/Indicator: WP2UVRA; Metabolic Activation: NONE; Method: PREINCUBATION
Calls of active or inactive are those of the source. How the calls were made is not given here.
Respond with a class label; see Y = active, N = inactive

1. C1CCCNCC1
N

Hey, what did the test say about CCOS(=O)(=O)OCC ?
Y

Hey, what did the test say about Cc1ccccc1S(N)(=O)=O ?
N

Hey, what did the test say about OCCOCCOCCO ?
N

Hey, what did the test say about CCOCCOC(C)=O ?
N

Hey, what did the test say about [Cl][Cr]([Cl])[Cl] ?
N

Hey, what did the test say about CC(C)(c1ccc(O)cc1)c1ccc(O)cc1 ?
N

Hey, what did the test say about O=[N+]([O-])c1cc(Cl)ccc1Cl ?
N

Hey, what did the test say about CCCC(=O)O ?
N

Hey, what did the test say about O=S(=O)(O)c1cc(S(=O)(=O)O)c2cc(O)ccc2c1 ?
N

Hey, what did the test say about Cc1cc(-c2ccc(N=C=O)c(C)c2)ccc1N=C=O ?
N

Hey, what did the test say about Cc1ccccn1 ?
N

Hey, what did the test say about O=C1C(Cl)=C(Cl)C(=O)c2ccccc21 ?
N

Hey, what did the test say about [B-] ?
N

Hey, what did the test say about Cc1ccc(N)cc1 ?
N

----------
System: CCRIS mutagenicity, Ames/micronucleus/aberration tests
Test: CCRIS mutagenicity studies
Conditions: Test System: AMES SALMONELLA TYPHIMURIUM; Strain/Indicator: TA1537; Metabolic Activation: NONE; Method: STANDARD PLATE
The source made the active and inactive calls. How the calls were made is not given here.
Respond with a class label; see true (1) for active, false (0) for inactive

Illustrative cases are given below, each with its answer.
1. C1COCO1
false (0)
2. O=[N+]([O-])c1ccc2nscc2c1
true (1)
3. Cc1c(-c2ccccc2)oc2c(C(=O)OCCN3CCCCC3)cccc2c1=O
false (0)
4. Cc1ccc(N=NN(C)C)cc1
true (1)
5. ClCCNCCCNc1c2ccccc2nc2c1ccc1cccnc12
true (1)
6. CN(C)CCNC(=O)c1cccc2c(N)c3ccccc3nc12
true (1)

Hey, what did the test say about CCN(CC)C(=O)Nc1ccc(OCC(O)CNC(C)(C)C)c(C(C)=O)c1 (centres undefined) ?
false (0)

Hey, what did the test say about O=C(O)/C=C(/CC(=O)O)C(=O)O ?
false (0)

Hey, what did the test say about CC(=O)CC(C)(C)O ?
false (0)

Hey, what did the test say about CCOC(=O)CC(SP(=S)(OC)OC)C(=O)OCC (centres undefined) ?
false (0)

Hey, what did the test say about ClC(Br)Br ?
true (1)

----------
Tested on: CCRIS mutagenicity, Ames/micronucleus/aberration tests
Assay: CCRIS mutagenicity studies
Details: Test System: AMES SALMONELLA TYPHIMURIUM; Strain/Indicator: TA1538; Metabolic Activation: MOUSE, LIVER, S-9, AROCLOR 1254; Method: STANDARD PLATE
Activity calls are given as the source filed them. The rule behind the calls is not given here.
RESULT TYPE: mutagenic call

1) CCOc1ccc(NC(C)=O)cc1
inactive; negative
2) CC1(C)COC1=O
inactive; negative
3) Nc1ccccc1
inactive; negative

----------
Tested on: CCRIS mutagenicity, Ames/micronucleus/aberration tests
Assay: CCRIS mutagenicity studies
Conditions: Test System: AMES SALMONELLA TYPHIMURIUM; Strain/Indicator: TA100; Metabolic Activation: NONE; Method: STANDARD PLATE
Activity calls are given as the source filed them. The rule behind the calls is not given here.
Respond with a class label; see active, inactive

Illustrative cases are given below, each with its answer.
1. CNC(=O)CSP(=S)(OC)OC
inactive
2. Fc1c(F)c(F)c(Cl)c(F)c1F
inactive
3. Cc1ccc2cc(C)c3c4c(ccc3c2c1)[C@H](O)[C@@H](O)[C@H]1O[C@@H]41
active
4. CC(=O)OC[C@]12CCC(C)=C[C@H]1O[C@@H]1[C@H](O)[C@@H](OC(C)=O)[C@@]2(C)[C@]12CO2
inactive

Hey, what did the test say about CNC(=O)N(O)C(C)=O ?
active

Hey, what did the test say about CC(Br)C(=O)NC(C)(C)C (stereo unspecified) ?
inactive

Hey, what did the test say about CCCOc1cc(N=Nc2ccc(N(CC)CC)cc2)ccc1N=Nc1c(S(=O)(=O)O)cc2ccc(N)cc2c1O ?
inactive

Hey, what did the test say about CC(C)OC(=O)COc1ccc(Cl)cc1Cl ?
inactive

----------
Test system: CCRIS mutagenicity, Ames/micronucleus/aberration tests
Assay: CCRIS mutagenicity studies
Details: Test System: UDS RAT HEPATOCYTES; Strain/Indicator: THYMIDINE INCORPORATION; Metabolic Activation: NONE; Method: AUTORADIOGRAPHY
The source made the active and inactive calls. No rule for the calls is given here.
Respond with a class label; see t = active, f = inactive

Illustrative cases are given below, each with its answer.
1. CC1=C(Cl)C(=O)OC1O (centres undefined)
t
2. CC(C)OC(=O)COc1ccc(Cl)cc1Cl
f
3. O=C1OC(O)C(C(Cl)Cl)=C1Cl (centres undefined)
t

Consider the additional compound presented here.
Hey, what did the test say about O=C1OC(O)C(Cl)=C1Cl (centres undefined) ?
t

----------
Test system: CCRIS mutagenicity, Ames/micronucleus/aberration tests
Assay: CCRIS mutagenicity studies
Details: Test System: AMES SALMONELLA TYPHIMURIUM; Strain/Indicator: TA100; Metabolic Activation: RAT, LIVER, S-9, AROCLOR 1254; Method: STANDARD PLATE
Active and inactive are the calls of the source. The rule behind the calls is not given here.
Respond with a class label; see 1 for active, -1 for inactive

1) CCOc1ccc(NC(C)=O)cc1
-1
2) CC(=O)N(CC(O)CN(C(C)=O)c1c(I)c(C(=O)NCC(O)CO)c(I)c(C(=O)NCC(O)CO)c1I)c1c(I)c(C(=O)NCC(O)CO)c(I)c(C(=O)NCC(O)CO)c1I (stereo unspecified)
-1
3) O=C1C[C@H](O)[C@@H]2c3c(ccc(O)c31)-c1ccc(O)c3c1[C@@]2(O)CCC3=O
1
4) O=C1CNC(=O)N1
-1
5) CCC(=O)N(O)c1ccc(Cl)c(Cl)c1
-1
6) O=C(c1ccccc1)C1OC1c1ccc(-c2ccccc2)cc1 (stereo unspecified)
-1

Hey, what did the test say about BrCCBr ?
1

Hey, what did the test say about CS(=O)(=O)n1ncc(Cl)c(Cl)c1=O ?
1

Hey, what did the test say about O=C(COc1ccc(Cl)cc1Cl)N[C@@H](Cc1c[nH]c2ccccc12)C(=O)O ?
-1

Hey, what did the test say about CC(=O)Nc1ccc(OC(=O)c2ccccc2OC(C)=O)cc1 ?
-1

Hey, what did the test say about COC(=O)Nc1nc2ccc(Sc3ccccc3)cc2[nH]1 ?
-1

----------
System: CCRIS mutagenicity, Ames/micronucleus/aberration tests
Test: CCRIS mutagenicity studies
Conditions: End Point: IN VITRO CHROMOSOMAL ABERRATIONS; Test System: CHO CELLS; Metabolic Activation: NONE
Active and inactive are the calls of the source. No rule for the calls is given here.
RESULT TYPE: mutagenic call

1) COc1ccc(C(=O)/C(Br)=C\C(=O)O)cc1
active; positive
2) c1cc(OCC2CO2)cc(OCC2CO2)c1 (configuration not stated)
active; positive
3) ClC(Cl)=C(Cl)Cl
inactive; negative
4) Oc1ccc2ccccc2c1N=Nc1ccccc1
inactive; negative
5) CCBr
inactive; negative
6) Cc1cc(N=Nc2c(O)ccc3ccccc23)c(S(=O)(=O)O)cc1Cl
inactive; negative

Identify the measured mutagenic call of BrCC(Br)C1CCC(Br)C(Br)C1 (configuration not stated) for CCRIS mutagenicity, Ames/micronucleus/aberration tests.
inactive; negative

Identify the measured mutagenic call of OC[P+](CO)(CO)CO for CCRIS mutagenicity, Ames/micronucleus/aberration tests.
active; positive

Identify the measured mutagenic call of Oc1ccccc1 for CCRIS mutagenicity, Ames/micronucleus/aberration tests.
inactive; negative

Identify the measured mutagenic call of BrCCBr for CCRIS mutagenicity, Ames/micronucleus/aberration tests.
active; positive

----------
Test system: CCRIS mutagenicity, Ames/micronucleus/aberration tests
Test: CCRIS mutagenicity studies
Details: Test System: AMES SALMONELLA TYPHIMURIUM; Strain/Indicator: TA97; Metabolic Activation: NONE; Method: STANDARD PLATE
Calls of active or inactive are those of the source. The rule behind the calls is not given here.
Respond with a class label; see true for active, false for inactive

Illustrative cases are given below, each with its answer.
1. O=C1CN(/N=C/C=C/c2ccc([N+](=O)[O-])o2)C(=O)N1
true
2. COC(=O)Nc1nc2ccc(Sc3ccccc3)cc2[nH]1
false

Consider the additional molecule presented here.
Hey, what did the test say about Fc1cccc(F)n1 ?
false

----------
Tested on: CCRIS mutagenicity, Ames/micronucleus/aberration tests
Test: CCRIS mutagenicity studies
Details: Test System: AMES SALMONELLA TYPHIMURIUM; Strain/Indicator: TA97; Metabolic Activation: NONE; Method: STANDARD PLATE
Active and inactive are the calls of the source. The rule behind the calls is not given here.
RESULT TYPE: mutagenic call

Here is how some molecules turned out for mutagenic call.
1. Clc1cccnc1
inactive; negative
2. CC(=O)Oc1ccccc1C(=O)Oc1ccccc1C(=O)O
inactive; negative
3. c1ccc2c(c1)ccc1ccccc12
inactive; negative
4. O=C1CNC(=O)N1
inactive; negative
5. CCBr
active; positive

Which measured mutagenic call value corresponds to CCC(CCC(C)=O)COC(=O)CCCCC(=O)O (configuration not stated) ?
inactive; negative

Which measured mutagenic call value corresponds to Cc1c(C)c2c(Cl)c3ccccc3nc2c2ccccc12 ?
active; positive

Which measured mutagenic call value corresponds to O=C(COc1cc(Cl)c(Cl)cc1Cl)N[C@@H](Cc1c[nH]c2ccccc12)C(=O)O ?
inactive; negative

Which measured mutagenic call value corresponds to COc1cc2c(CCNC(C)=O)c[nH]c2cc1O ?
inactive; negative

Which measured mutagenic call value corresponds to CC1(C)CC[C@]2(C(=O)O)CC[C@]3(C)C(=CC[C@@H]4[C@@]5(C)C[C@H](O)[C@H](O[C@@H]6O[C@H](CO)[C@@H](O)[C@H](O)[C@H]6O)C(C)(C(=O)O)C5CC[C@]43C)[C@H]2C1 (some centres not stated) ?
inactive; negative

Which measured mutagenic call value corresponds to CCC(CCC(C)O)COC(=O)CCCCC(=O)O (configuration not stated) ?
inactive; negative

Which measured mutagenic call value corresponds to COP(=S)(OC)SCN1C(=O)c2ccccc2C1=O ?
active; positive
